- System: Streptococcus suis HE06
- measurement.notes: percent growth relative to DMSO control; higher = less growth inhibition
- settings: 10 µM; incubation time 18 h
metric.name: percent growth (%)
Report the value in % with no unit label.

Some entries whose results are on file:
COc1cc(NC(C)CCCN)c2ncccc2c1 (stereo not drawn)	90.6
CS(=O)(=O)c1ccc(C(=O)N(CC2CCCO2)c2nc3ccccc3s2)cc1[N+](=O)[O-] (stereo not drawn)	91.7
CCN(CC)CCCN1CCN(C(=O)c2cccc(-c3noc(C(F)(F)F)n3)c2)CC1	90.3
CCCc1ccc(S(=O)(=O)Nc2ccc(CN3CCN(CC4CC4)CC3)cc2)cc1	88
CS(=O)(=O)N1CCC(CCn2nc(Cc3cccc4ccccc34)c3c(N)ncnc32)CC1	90.3
CC(=O)N1CCc2cc3nc(C)cc(C)c3cc21	88.4

Request: percent growth, test system Streptococcus suis HE06, entry CCS(=O)(=O)N(Cc1ccco1)Cc1cc2ccc(C)cc2nc1O
90.6

Also need CCc1nc2ccc(Cl)cn2c1C(=O)NCc1ccc(N2CCC(c3ccc(OC(F)(F)F)cc3)CC2)cc1 , thanks.
89.9
